Subject of test: LPA1 (Homo sapiens)
Construct: ProLink (PK) beta-galactosidase enzyme-fragment tag
Method summary: LPA1 calcium flux assay (LPA1 functional antagonist assay)
Assay setup: PathHunter CHO-K1 EDG2 β-Arrestin cell line; calcium indicator dye; stimulated with EC80 concentration of LPA; FLIPR Tetra
pIC50: −log10 of the molar value.
Readout: pIC50

Take a look at these entries with their results.
Which pIC50 value is on record for Cc1nc(-c2nnn(C)c2CN2C[C@H](CC3CC3)N(C)C2=O)ccc1N1C[C@H](CC(=O)O)CC(F)(F)C1 ?
5.30 to 6.30

Which pIC50 value is on record for Cc1nc(-c2nnn(C)c2CN2C[C@@H](CC3CC3)N(C)C2=O)ccc1N1C[C@@H](CC(=O)O)CC(F)(F)C1 ?
5.30 to 6.30

Which pIC50 value is on record for CCc1nc(-c2nnn(C)c2Cn2nc(CC3CC3)ccc2=O)ccc1N1C[C@@H](CC(=O)O)CC(F)(F)C1 ?
6.30 to 7.00

Which pIC50 value is on record for CCc1nc(-c2nnn(C)c2COc2nccc(C3CCC3)n2)ccc1N1CCC[C@@H](CC(=O)O)C1 ?
< 5.30

Which pIC50 value is on record for CCc1nc(-c2nnn(C)c2COc2noc(CC3CC3)n2)ccc1N1C[C@@H](CC(=O)O)CC(F)(F)C1 ?
> 7.00

---
Which pIC50 value is on record for CCCn1ccc(=O)c(OCc2c(-c3ccc(N4C[C@@H](CC(=O)O)CC(F)(F)C4)c(CC)n3)nnn2C)c1 ?
< 5.30

Which pIC50 value is on record for CCc1nc(-c2nnn(C)c2Cn2cc(CC(C)C)ccc2=O)ccc1N1C[C@@H](CC(=O)O)CC(F)(F)C1 ?
> 7.00

###

Subject of test: LPA1 (Homo sapiens)
Construct: ProLink (PK) beta-galactosidase enzyme-fragment tag
Method summary: LPA1 calcium flux assay (LPA1 functional antagonist assay)
Assay setup: PathHunter CHO-K1 EDG2 β-Arrestin cell line; calcium indicator dye; stimulated with EC80 concentration of LPA; FLIPR Tetra
pIC50: −log10 of the molar value.
Catalogue of molecules with associated pIC50

Take a look at these entries with their results.
Which pIC50 value is on record for CCc1nc(-c2nnn(C)c2Cn2cc(N3CCC3)ccc2=O)ccc1N1C[C@@H](CC(=O)O)CC(F)(F)C1 ?
5.30 to 6.30

Which pIC50 value is on record for Cc1nc(-c2nnn(C)c2Cn2ccc(CC3CC3)c(C)c2=O)ccc1N1CC(CC(=O)O)CC(F)(F)C1 (stereo in doubt) ?
5.30 to 6.30

Which pIC50 value is on record for CCc1nc(-c2nnn(C)c2COc2cnn(CC(C)C)n2)ccc1N1C[C@@H](CC(=O)O)CC(F)(F)C1 ?
> 7.00

Which pIC50 value is on record for CCCc1ccc(=O)n(Cc2c(-c3ccc(CN4CC(C(=O)O)CC(F)(F)C4)c(C)n3)nnn2C)c1 (single isomer, unassigned) [Example 157] ?
5.30 to 6.30

---
Which pIC50 value is on record for CCc1nc(-c2nnn(C)c2COc2nnn(CC(C)C)n2)ccc1N1C[C@@H](CC(=O)O)CC(F)(F)C1 ?
> 7.00

###

Catalogue of compounds with associated IC50
Subject of test: LPA1 (Homo sapiens, UniProt Q92633)
Construct: ProLink (PK) beta-galactosidase enzyme-fragment tag
Sequence (Q92633 whole entry, the tested form may be a part): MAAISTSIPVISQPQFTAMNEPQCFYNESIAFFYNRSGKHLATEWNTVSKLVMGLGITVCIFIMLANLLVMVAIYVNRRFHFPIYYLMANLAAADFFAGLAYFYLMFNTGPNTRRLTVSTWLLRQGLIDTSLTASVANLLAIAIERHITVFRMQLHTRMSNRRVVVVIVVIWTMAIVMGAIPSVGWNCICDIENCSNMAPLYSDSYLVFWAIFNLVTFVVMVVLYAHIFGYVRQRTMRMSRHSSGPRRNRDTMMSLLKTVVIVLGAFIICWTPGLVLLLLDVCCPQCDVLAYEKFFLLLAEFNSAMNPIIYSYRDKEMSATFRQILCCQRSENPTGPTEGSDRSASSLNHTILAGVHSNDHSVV
Method summary: LPA1 calcium flux assay (LPA1 functional antagonist assay)
Assay setup: PathHunter CHO-K1 EDG2 β-Arrestin cell line; calcium indicator dye; stimulated with EC80 concentration of LPA; FLIPR Tetra

Take a look at these entries with their results.
Which IC50 value is on record for CCCc1ccc(=O)n(Cc2c(-c3ncc(N4C[C@@H](CC(=O)O)CC(F)(F)C4)c(CC)n3)cnn2C)c1 [Example 37] ?
> 5 µM

Which IC50 value is on record for CCc1nc(-c2cnn(C)c2COc2noc(CC3CC3)n2)ncc1N1C[C@@H](CC(=O)O)CC(F)(F)C1 [Example 118] ?
> 5 µM

---
Which IC50 value is on record for CCc1nc(-c2nnn(C)c2Cn2cc(CC(C)C)ccc2=O)ccc1CN1CC(C(=O)O)CC(F)(F)C1 (single isomer, unassigned) [Example 155] ?
0.5 to 5 µM
